Some molecules, each annotated with its measured cytotoxicity at 70.5 h.
- MEASUREMENT PROTOCOL: Human HepG2 cell viability assay in 384 well format
- Format: toxicity, cell-based
- Design: dose 125 nL, time 70.5 hour; concentration not given beside the values
- REPORTED CONDITIONS: HepG2 cells, read-out: Inhibition
READOUT TYPE: cytotoxicity at 70.5 h

>>> result("CCCC(=O)NC(C)c1nnc2n1CCC2 (stereo not given)")
"-15.3%"
>>> result("CC(NC(=O)CCc1nc(-c2nnc[nH]2)no1)c1ccc(F)cc1F (stereo not given)")
"4.47%"
>>> result("Cn1cnc(S(=O)(=O)NCC2(O)CCc3ccccc32)c1 (stereo not given)")
"9.61%"
>>> result("Cc1cc(C(=O)NCC2(C(N)=O)CCOCC2)nn1C(C)(C)C")
"-6.96%"
>>> result("CCC(C(=O)Nc1ccc(-c2nc(C)n[nH]2)cc1)N1CCCC1=O (stereo not given)")
"-9.81%"
>>> result("CC(C)N(C)Cc1noc2c1CN(C(=O)c1ccsc1)CC2")
"-12.5%"
>>> result("CCOCC1c2c(ncn2C)CCN1C(=O)c1cnc(C)cn1 (stereo not given)")
"-12%"
>>> result("COCC(=O)N1CC[C@H]2O[C@@H](C)C[C@H]2C1")
"-8.73%"
>>> result("CCc1nc(CN(C)C2CCN(CCn3cccn3)C2)no1 (stereo not given)")
"-15.3%"
>>> result("CCCc1nc(N2CCCN(c3ccncc3)CC2)c2cnn(C)c2n1")
"-11.6%"
>>> result("CS(=O)(=O)N1CCC(Cc2cnc(Br)cn2)C1 (stereo not given)")
"45.3%"
>>> result("COc1cc(NC(=O)c2ccc(CN3CC[C@H](O)C3)cc2)cc(OC)c1")
"-10.7%"
>>> result("c1csc(N2CCCN(c3nccn4cnnc34)CC2)n1")
"3.4%"
>>> result("Cc1nsc2ncc(C(=O)N3CCCC3c3cnn(C)c3)cc12 (stereo not given)")
"-0.553%"
>>> result("Cc1ccoc1C(=O)NC1CCN(Cc2ccccc2F)CC1")
"27.3%"
>>> result("Cc1ncnc2c1CCN(Cc1ccc3c(c1)OCO3)CC2")
"-3.06%"
>>> result("c1cnc(NC2COC3(CCN(Cc4ccoc4)CC3)C2)nc1 (stereo not given)")
"-97.7%"
>>> result("COCC(=O)NCCSCCOc1cccc(Br)c1")
"32%"
>>> result("Cc1nc(N2CCN(C)CC2)ncc1C(=O)N1CC(C)(C)C(C)(O)C1 (stereo not given)")
"14.1%"
>>> result("O=C(Cn1ccc2ccc(Cl)cc21)/N=c1\\[nH]nc(C2CCCO2)s1 (stereo not given)")
"-2.63%"
>>> result("CC(C)N1CCC(CNC(=O)COc2ccc(F)cc2F)C1 (stereo not given)")
"4.12%"
>>> result("Cc1cnn(CC2CCCN2Cc2nc3ccccc3n2C)c1 (stereo not given)")
"-10.6%"
>>> result("Cc1c[nH]c(CN(C)C(=O)CCn2cnc3ccccc32)n1")
"-1.23%"
>>> result("O=C(O)c1ccc(N2CCC(Oc3cccc(F)c3)CC2)nc1")
"14.5%"
>>> result("CN(CCO)C(=O)Nc1ccn(-c2cccc(C(F)(F)F)c2)n1")
"-2.71%"
